# Test system: SNB-19 CNS
# Test name: NCI-60 one-dose screen, 48 h (100 = growth as untreated, 0 = no growth, -100 = all killed)
# Test conditions: 10 µM
About 83,000 compounds went through this panel and 20% of them were active in at least one assay; those are over-represented in the sample as a whole.
Recorded metric: growth (%)
Field format: number, assumed %, no unit text.

Consider CCCCCC(=O)O[C@]1(C(C)=O)CCC2C3CCC4=CC(=O)CC[C@]4(C)C3CC[C@@]21C (some centres undefined) . Its measured growth is 43.7

Per the record, `C[C@H]1[C@H](OC(=O)CCC(=O)O)O[C@@H]2O[C@]3(C)CC[C@H]4[C@H](C)CC[C@@H]1[C@@]24OO3` has growth of 57.9

Measured growth, `CC(=O)N[C@H](C(=O)N[C@@H](CCCNC(=N)N)C(=O)N[C@@H](CCCCN)C(=O)N[C@@H](CCCNC(=N)N)C(=O)N[C@]1(C)CCC/C=C\CCC[C@@](C)(C(=O)N[C@@H](CC(C)C)C(=O)N[C@@H](CC(C)C)C(=O)N[C@@H](CCC(N)=O)C(=O)N[C@@H](CCC(=O)O)C(=O)N[C@@H](CCCNC(=N)N)C(=O)N[C@@H](CCC(=O)O)C(=O)N[C@@H](CC(C)C)C(=O)N[C@H](C(=O)N[C@@H](CCC(=O)O)C(N)=O)C(C)C)NC(=O)[C@H](CCCNC(=N)N)NC(=O)[C@H](CC(C)C)NC1=O)C(C)C` : 105

Entry `CCc1ccc(-c2ccc(-n3nc(C)c4c(N)nc(Cc5ccccc5)nc43)cc2)cc1` — recorded growth = 66.3

growth in this record for `COc1cc2c3c(n(C4CCN(C)CC4)c(=O)c2cc1OC)-c1cc2c(cc1C3=O)OCO2` : 59.6

The reported value for C1CN(CC2CCC(CN3CCOCC3)O2)CCO1 (centres undefined) in terms of growth is 105

The reported growth of the compound `COc1cc(-c2ccc(N=Nc3ccc4c(S(=O)(=O)O)ccc(N)c4c3O)c(OC)c2)ccc1N=Nc1ccc2c(S(=O)(=O)O)ccc(N)c2c1O` was 110

For reference, reported growth for `O=c1cn[nH]c2ccc(Br)cc12` stands at 106

The record that follows has no growth shown yet.
Form field growth, entry `Nc1ncc(-c2cnn(C3CCNCC3)c2)cc1-c1nc2ccccc2o1` : 35.8

Data provenance is PubChem BioAssay (NCI).
